molecular target: sweet taste receptor TAS1R2/R3 (TAS1R2) (Homo sapiens, UniProt Q7RTX0+Q8TE23); construct: with TAS1R3; test: calcium (Twitch2B FRET) response in reverse-transfected HEK293-Gα[…]GUST44 receptor array, flow cell; format: cell-based
Sequence (Q8TE23 20-839): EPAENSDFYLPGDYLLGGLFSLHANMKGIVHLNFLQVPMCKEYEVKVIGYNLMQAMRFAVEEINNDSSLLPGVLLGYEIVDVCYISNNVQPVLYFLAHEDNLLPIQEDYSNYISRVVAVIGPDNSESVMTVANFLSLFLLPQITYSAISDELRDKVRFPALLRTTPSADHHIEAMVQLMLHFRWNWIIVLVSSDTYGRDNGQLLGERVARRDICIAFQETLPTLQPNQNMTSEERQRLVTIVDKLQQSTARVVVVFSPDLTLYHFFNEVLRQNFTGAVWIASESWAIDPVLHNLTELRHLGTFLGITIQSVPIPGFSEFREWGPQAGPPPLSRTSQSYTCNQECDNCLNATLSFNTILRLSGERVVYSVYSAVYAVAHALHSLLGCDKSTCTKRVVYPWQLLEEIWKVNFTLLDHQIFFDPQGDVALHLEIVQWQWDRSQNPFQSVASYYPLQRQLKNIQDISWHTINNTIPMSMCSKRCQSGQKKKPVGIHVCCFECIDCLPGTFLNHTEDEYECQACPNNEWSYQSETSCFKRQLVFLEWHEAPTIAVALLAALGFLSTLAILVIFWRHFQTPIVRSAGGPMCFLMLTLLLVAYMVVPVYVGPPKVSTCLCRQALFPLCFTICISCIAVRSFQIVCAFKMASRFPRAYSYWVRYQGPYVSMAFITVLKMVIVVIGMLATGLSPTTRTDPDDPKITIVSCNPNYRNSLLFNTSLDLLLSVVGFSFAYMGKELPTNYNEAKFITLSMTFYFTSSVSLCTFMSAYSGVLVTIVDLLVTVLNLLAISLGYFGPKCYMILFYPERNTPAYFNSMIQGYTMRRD
Sequence (Q7RTX0 21-852): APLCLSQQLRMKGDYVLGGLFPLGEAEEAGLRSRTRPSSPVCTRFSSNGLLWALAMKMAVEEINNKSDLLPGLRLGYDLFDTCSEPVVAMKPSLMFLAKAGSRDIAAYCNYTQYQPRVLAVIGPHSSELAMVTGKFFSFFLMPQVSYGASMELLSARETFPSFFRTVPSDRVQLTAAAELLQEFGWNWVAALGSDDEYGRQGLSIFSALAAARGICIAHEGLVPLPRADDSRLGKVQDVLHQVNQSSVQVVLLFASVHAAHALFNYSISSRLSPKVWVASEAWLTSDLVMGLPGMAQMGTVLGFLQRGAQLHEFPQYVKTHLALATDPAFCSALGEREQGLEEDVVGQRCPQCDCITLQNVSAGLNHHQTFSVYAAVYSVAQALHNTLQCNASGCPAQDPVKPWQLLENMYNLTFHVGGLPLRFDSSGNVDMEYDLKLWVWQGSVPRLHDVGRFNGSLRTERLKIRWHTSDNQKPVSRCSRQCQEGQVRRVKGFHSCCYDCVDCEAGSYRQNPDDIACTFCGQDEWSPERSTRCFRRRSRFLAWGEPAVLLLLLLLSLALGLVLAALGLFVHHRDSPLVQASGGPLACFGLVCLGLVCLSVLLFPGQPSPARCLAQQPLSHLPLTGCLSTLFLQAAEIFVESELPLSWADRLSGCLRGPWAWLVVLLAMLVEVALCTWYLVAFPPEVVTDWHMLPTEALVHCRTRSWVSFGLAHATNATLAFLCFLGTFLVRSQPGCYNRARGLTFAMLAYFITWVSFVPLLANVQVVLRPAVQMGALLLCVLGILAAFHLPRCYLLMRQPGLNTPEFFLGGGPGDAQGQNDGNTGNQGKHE
Where a SMILES comes first, the peptide text is derived from it.
OUTCOME_MEASURE: EC50 (µM)
Output spec: scalar in µM, unitless text.

Task: # returns recorded EC50 (system: sweet taste receptor TAS1R2/R3 (TAS1R2) (Homo sapiens, UniProt Q7RTX0+Q8TE23)) for COC(=O)[C@H](Cc1ccccc1)NC(=O)[C@@H](N)CC(=O)O [aspartame] (H-Asp-Phe-OMe)
Result: 625
